- TARGET: T1, cynomolgus monkey PSMA-Fc fusion (human; cynomolgus monkey, PSMA is a glycosylated homodimer. Only one subunit is given.)
- T1 construct: also called cyno PSMA Fc; cynoPSMA-Fc; not shown: Human IgG1 Fc domain, which sits N-terminal of the PSMA ECD, and the junction with the Prescission protease site
- T1 chain: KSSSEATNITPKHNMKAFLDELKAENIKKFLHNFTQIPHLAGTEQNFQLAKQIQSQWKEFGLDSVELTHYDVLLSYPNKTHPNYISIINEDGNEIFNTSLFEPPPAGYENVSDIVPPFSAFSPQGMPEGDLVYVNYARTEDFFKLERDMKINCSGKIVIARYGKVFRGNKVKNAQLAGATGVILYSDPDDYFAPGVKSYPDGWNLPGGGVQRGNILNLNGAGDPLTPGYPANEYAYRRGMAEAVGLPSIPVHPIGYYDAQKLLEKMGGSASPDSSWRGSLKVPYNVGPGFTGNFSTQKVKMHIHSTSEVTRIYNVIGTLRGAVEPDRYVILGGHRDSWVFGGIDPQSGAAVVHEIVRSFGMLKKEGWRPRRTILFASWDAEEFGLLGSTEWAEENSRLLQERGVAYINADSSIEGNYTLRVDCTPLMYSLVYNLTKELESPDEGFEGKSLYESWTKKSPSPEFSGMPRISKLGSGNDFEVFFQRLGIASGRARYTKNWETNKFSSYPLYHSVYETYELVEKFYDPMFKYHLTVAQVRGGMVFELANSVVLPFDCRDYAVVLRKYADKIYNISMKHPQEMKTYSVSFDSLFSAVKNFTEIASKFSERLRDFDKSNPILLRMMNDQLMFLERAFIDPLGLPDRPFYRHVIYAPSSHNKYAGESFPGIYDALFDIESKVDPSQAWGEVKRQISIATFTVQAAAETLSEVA
- TEST_DETAILS: binding to cynoPSMA-Fc; method not described
READOUT_TYPE: Kd (nM)
Give bare numbers, in nM.

Returns the measured Kd for the input binder. Input: P233FR9_H10 PSMA binding FN3 domain (designed binder, His-tagged, expressed in E. coli; also called H10 centyrin; not shown: C-terminal poly-histidine tag) LPAPKNLVVSRVTEDSARLSWTAPDAAFDSFAIGYWEWDDDGEAIVLTVPGSERSYDLTGLKPGTEYPVYIAGVKGGQWSFPLSAIFTT
692

Ref: patent US20230183314A1
